experimental_target: human 11β-HSD1 (Homo sapiens)
Construct: expressed in transfected cells; host or cells: CHO cells (microsomes)
protocol_notes: Biological Test Example 1: inhibition of a microsomal preparation of 11β-HSD1 (SPA)
Type: biochemical
condition_notes: Biological Test Example 1 IC50 (nM), examples
parameter_measured: log10(IC50) (log10 of the value in nM)
# log10 transformed; quantity=IC50; unit=nM

Quick check: log10(IC50) of CC(C)(O)C[C@]1(c2ccccc2)CCN([C@H]2CCCN(c3cc(C(F)(F)F)ccn3)C2)C(=O)O1 [Example 3] ?
0.64

What do you have for COc1cnc(N2CC[C@H](N3CC[C@](CC(C)(C)O)(c4ccccc4)OC3=O)C2)nc1 [Example 24] ?
1.63

What do you have for O=C1O[C@@](CCCO)(c2ccc(F)cc2)CCN1[C@H]1CCCN(c2ccc(C(F)(F)F)cn2)C1 [Example 16] ?
0.15

What do you have for CNC(=O)c1ccc(N2CCC[C@H](N3CC[C@](CCCO)(c4ccc(F)cc4)OC3=O)C2)nc1 [Example 19] ?
1.82

What do you have for CC(C)(O)C[C@]1(c2ccccc2)CCN([C@H]2CCN(c3nccc(C(F)(F)F)n3)C2)C(=O)O1 [Example 23] ?
0.76

What do you have for COc1cnc(N2CCC[C@H](N3CC[C@](CC(C)(C)O)(c4ccccc4)OC3=O)C2)nc1 [Example 12] ?
0.63

What do you have for Cc1cnc(N2CCC[C@H](N3CC[C@](CC(C)(C)O)(c4ccccc4)OC3=O)C2)s1 [Example 13] ?
1.13

What do you have for CN(C)C(=O)c1ccc(N2CCC[C@H](N3CC[C@](CCCO)(c4ccc(F)cc4)OC3=O)C2)nc1 [Example 20] ?
1.44

What do you have for CC(C)(O)C[C@]1(c2ccccc2)CCN([C@H]2CCN(c3ncc(Cl)cn3)C2)C(=O)O1 [Example 14] ?
0.54

What do you have for CC(C)(O)C[C@]1(c2ccccc2)CCN([C@H]2CCCN(c3ccc(C(F)(F)F)cn3)C2)C(=O)O1 [Example 4] ?
0.61

What do you have for COC(=O)c1cnc(N2CCC[C@H](N3CC[C@](CC(C)(C)O)(c4ccccc4)OC3=O)C2)nc1 [Example 10] ?
0.74

What do you have for CC(C)(O)C[C@]1(c2ccccc2)CCN([C@H]2CCCN(c3ccnc(C(F)(F)F)n3)C2)C(=O)O1 [Example 11] ?
1.28

What do you have for Cc1cc(N2CCC[C@H](N3CC[C@](CC(C)(C)O)(c4ccccc4)OC3=O)C2)nc(C)n1 [Example 9] ?
1.93

What do you have for CC(C)(O)C[C@]1(c2ccccc2)CCN([C@H]2CCCN(c3cccc(C(F)(F)F)n3)C2)C(=O)O1 [Example 5] ?
1.07

What do you have for CC(C)(O)C[C@]1(c2ccccc2)CCN([C@H]2CCCN(c3ncc(F)cn3)C2)C(=O)O1 [Example 7] ?
0.79

---

experimental_target: human 11β-HSD1 (Homo sapiens)
Construct: expressed in transfected cells; host or cells: CHO cells (microsomes)
protocol_notes: Biological Test Example 1: inhibition of a microsomal preparation of 11β-HSD1 (SPA)
Assay type: biochemical
condition_notes: Biological Test Example 1 IC50 (nM), examples
parameter_measured: IC50 (nM)
Reply with just the number (in nM).

Quick check: IC50 of CC(C)(O)C[C@]1(c2ccccc2)CCN([C@H]2CCCN(c3ncccc3F)C2)C(=O)O1 ?
12.7

What do you have for NC(=O)c1ccc(N2CCC[C@H](N3CC[C@](CCCO)(c4ccc(F)cc4)OC3=O)C2)nc1 ?
26.4

What do you have for CC(C)(O)C[C@]1(c2ccccc2)CCN([C@H]2CCCN(c3ncccc3C(F)(F)F)C2)C(=O)O1 ?
22.6

What do you have for CC(C)(O)C[C@]1(c2ccccc2)CCN([C@H]2CCN(c3ccc(C(F)(F)F)cn3)C2)C(=O)O1 ?
4.3

---

Give inhibition at 0.1 µM for every item shown.
experimental_target: human 11β-HSD1 (Homo sapiens, UniProt P28845)
Construct: expressed in transfected cells; host or cells: CHO cells (microsomes)
Sequence (P28845 whole entry): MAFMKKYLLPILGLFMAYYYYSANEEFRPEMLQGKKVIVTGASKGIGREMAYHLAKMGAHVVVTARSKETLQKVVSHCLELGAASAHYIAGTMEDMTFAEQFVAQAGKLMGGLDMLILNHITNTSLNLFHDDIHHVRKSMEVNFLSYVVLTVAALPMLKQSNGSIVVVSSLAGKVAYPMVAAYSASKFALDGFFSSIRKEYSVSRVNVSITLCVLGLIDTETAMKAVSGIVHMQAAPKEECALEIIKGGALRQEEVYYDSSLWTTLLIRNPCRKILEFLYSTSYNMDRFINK
protocol_notes: Biological Test Example 1: inhibition of a microsomal preparation of 11β-HSD1 (SPA)
Type: biochemical
condition_notes: read-out: Average % inhibition at 100 nM
Form field: result (number plus unit)

Give human 11β-HSD1 (Homo sapiens, UniProt P28845) inhibition at 0.1 µM for Cc1cc(N2CCC[C@H](N3CC[C@](CC(C)(C)O)(c4ccccc4)OC3=O)C2)nc(C)n1
40.2%

What do you have for CC(C)(O)C[C@]1(c2ccccc2)CCN([C@H]2CCCN(c3ccc(C(F)(F)F)cn3)C2)C(=O)O1 ?
89.8%

What do you have for CNC(=O)c1ccc(N2CCC[C@H](N3CC[C@](CCCO)(c4ccc(F)cc4)OC3=O)C2)nc1 ?
55.2%

What do you have for Cc1cnc(N2CCC[C@H](N3CC[C@](CC(C)(C)O)(c4ccccc4)OC3=O)C2)s1 ?
90.4%

---

Give Shift for every item shown.
experimental_target: human 11β-HSD1 (Homo sapiens)
Construct: expressed in transfected cells; host or cells: CHO cells (microsomes)
protocol_notes: Biological Test Example 4: inhibition of microsomal 11β-HSD1 in the presence of 50% human plasma
Assay type: biochemical
condition_notes: IC50 in Biological Test Example 4 divided by IC50 in Biological Test Example 1; examples
Could you respond with only the numeric value?

Quick check: Shift of CC(C)(O)C[C@]1(c2ccccc2)CCN([C@H]2CCN(c3ncc(Cl)cn3)C2)C(=O)O1 ?
2.2

What do you have for O=C1O[C@@](CCCO)(c2ccc(F)cc2)CCN1[C@H]1CCCN(c2ccc(C(F)(F)F)cn2)C1 ?
10.0

What do you have for COc1cnc(N2CCC[C@H](N3CC[C@](CC(C)(C)O)(c4ccccc4)OC3=O)C2)nc1 ?
2.4

What do you have for CC(C)(O)C[C@]1(c2ccccc2)CCN([C@H]2CCN(c3ccc(C(F)(F)F)cn3)C2)C(=O)O1 ?
8.7

What do you have for CC(C)(O)C[C@]1(c2ccccc2)CCN([C@H]2CCN(c3nccc(C(F)(F)F)n3)C2)C(=O)O1 ?
9.2

What do you have for COC(=O)c1cnc(N2CCC[C@H](N3CC[C@](CC(C)(C)O)(c4ccccc4)OC3=O)C2)nc1 ?
12.7

What do you have for CC(C)(O)C[C@]1(c2ccccc2)CCN([C@H]2CCCN(c3ncc(F)cn3)C2)C(=O)O1 ?
2.4

What do you have for CC(C)(O)C[C@]1(c2ccccc2)CCN([C@H]2CCCN(c3ccc(C(F)(F)F)cn3)C2)C(=O)O1 ?
5.3

What do you have for CC(C)(O)C[C@]1(c2ccccc2)CCN([C@H]2CCCN(c3ncccc3C(F)(F)F)C2)C(=O)O1 ?
9.3

What do you have for CC(C)(O)C[C@]1(c2ccccc2)CCN([C@H]2CCCN(c3cc(C(F)(F)F)ccn3)C2)C(=O)O1 ?
15.6

---

Give pIC50 for every item shown.
experimental_target: human 11β-HSD1 (Homo sapiens, UniProt P28845)
Construct: expressed in transfected cells; host or cells: CHO cells (microsomes)
protocol_notes: Biological Test Example 4: inhibition of microsomal 11β-HSD1 in the presence of 50% human plasma
Type: biochemical
condition_notes: 50% human plasma; examples
Units for pIC50: none; it is -log10 of a concentration expressed in mol/L.

Quick check: pIC50 of O=C1O[C@@](CCCO)(c2ccc(F)cc2)CCN1[C@H]1CCCN(c2ccc(C(F)(F)F)cn2)C1 ?
7.84

What do you have for CC(C)(O)C[C@]1(c2ccccc2)CCN([C@H]2CCCN(c3ncccc3C(F)(F)F)C2)C(=O)O1 ?
6.68

What do you have for CC(C)(O)C[C@]1(c2ccccc2)CCN([C@H]2CCCN(c3ccc(C(F)(F)F)cn3)C2)C(=O)O1 ?
7.67

What do you have for COC(=O)c1cnc(N2CCC[C@H](N3CC[C@](CC(C)(C)O)(c4ccccc4)OC3=O)C2)nc1 ?
7.16

What do you have for CC(C)(O)C[C@]1(c2ccccc2)CCN([C@H]2CCCN(c3ncc(F)cn3)C2)C(=O)O1 ?
7.83

What do you have for COc1cnc(N2CCC[C@H](N3CC[C@](CC(C)(C)O)(c4ccccc4)OC3=O)C2)nc1 ?
7.98

What do you have for CC(C)(O)C[C@]1(c2ccccc2)CCN([C@H]2CCCN(c3cc(C(F)(F)F)ccn3)C2)C(=O)O1 ?
7.16

What do you have for CC(C)(O)C[C@]1(c2ccccc2)CCN([C@H]2CCN(c3nccc(C(F)(F)F)n3)C2)C(=O)O1 ?
7.28

What do you have for CC(C)(O)C[C@]1(c2ccccc2)CCN([C@H]2CCN(c3ccc(C(F)(F)F)cn3)C2)C(=O)O1 ?
7.42

What do you have for CC(C)(O)C[C@]1(c2ccccc2)CCN([C@H]2CCN(c3ncc(Cl)cn3)C2)C(=O)O1 ?
8.11
